System: K4 kissing-loop RNA reporter;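 further: bound reporter read as fluorescence of individual clusters on recovered sequencing chips by microscopy, with normalized cluster intensities fitted with a binding model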
Test: apparent KD of K4 kissing-loop reporter; higher = weaker reporter binding
Conditions: Eterna round: R107; input ligand: none
The following ranges of apparent KD of K4 kissing-loop reporter define the classes used here: small value (below 200 nM), mid value (200 nM to below 600 nM), large value (600 nM or more)

> print(dat)
                                   seq.text                   measured.on  class.assignment
1  AAUAUAGUGAUGUUAUAUAAGAAGGAGUUACGAGGACCGGUACGGCCGCCACUCGAAACGAGUGAGGAUUUGGGAGAUUGGGUCC [SSTryptA.K]  K4 kissing-loop RNA reporter         mid value
2  AGGGAUGAUGGAUAAAUAAACAAAGGAGAUACCAGUCAAAUAAUAGGCCCUUGGCAGCUUCAGAUCAGUGAUGUUGAAGAUAUUG [#09 K4 Theophylline A Same State]  K4 kissing-loop RNA reporter       small value
3  CAUAGACAAGUGAUGUUUGUCAUAACCGAAGGAGCGUCGUUGAAGACAGGUAGGUCGCGGAUUAAUUUAGAUUAUAUUCUUUUUA [JR_SSArginiA_Sub020]  K4 kissing-loop RNA reporter         mid value
4  UUUUAAAUGUCUGAUACCAGAGAAAAUUUAUGUAGUGAUGUUAUAUACAAAAUAAAUAAGCUCCCUUGGCAGCAGUAUUAAUUUU [AstrosExc-TheB#7]  K4 kissing-loop RNA reporter         mid value
5  AGAUCUGUAACAGAUACCAGAGGACGAUGAUCGGAUAGUGAUGUUAUCUAUCAGUCGUCGCUCCCUUGGCAGCUGUUACAGAUCA [Omei KL Theo B SS B v2]  K4 kissing-loop RNA reporter       large value
6  GGCUUGCCAGUGAUGUUGGCAUAAACUGAAGGAGCGCGUGAAAACGCAGGUAGGUCGCAGAACCUUGCCAACUAUUUUAUUUGCC [Ex Arginine A K4 24]  K4 kissing-loop RNA reporter         mid value
7  GCCGUACGCAUGGAUACCAGUCUAAGAGUGAUGUUCUUACCGAUUGCGCCUGGAUCAUUAGACCCUUGGCAGCCAUGCGUACGGC  K4 kissing-loop RNA reporter       small value
8  CUGGGUUGACGAAAAGUCAACAAAUGAGAAGGAGCGCACGAAAGUGCAGGUAGGUCGCUCAGUCCAGUGAUGUUGGAUCAUCCAG [#SwitchBubble 10 #K4Late]  K4 kissing-loop RNA reporter         mid value

[ask] # bin lookup: classify UUUUAAAUGUCUGAUACCAGAGAAAAUAUAUGUAGUGAUGUUAUAUACAAAUUGAAUAAGCUCCCUUGGCAGCAGUAUUAAUUUU [AstrosExc-TheB#11] by its apparent KD of K4 kissing-loop reporter
[reply] large value

[ask] Assign a bin to AGGACGUGAGAAGAUACCAGAGAAUAAUGCAGUGAUGUUGCUAAAUAUAAUUUAAUAUAACUCCCUUGGCAGCUUAAGUUAGUCU [Theophylline b same state]
[reply] small value

[ask] Consider GAUAUAGUGAUGUUAUAUACUGAUAGACAACGAGGACCGGUACGGCCGCCACUCGAGAGGGUGAAAAUGAUGAUAAAAUAAUGAU [#02 K4 Tryptophan A Exclusion] . To which apparent KD of K4 kissing-loop reporter class does it belong?
[reply] mid value
